- ASSAYED SYSTEM: EGFR L858R/C797S mutant (Homo sapiens (Human), UniProt P00533, C797S/L858R)
- Sequence (P00533 25-1210 C797S/L858R): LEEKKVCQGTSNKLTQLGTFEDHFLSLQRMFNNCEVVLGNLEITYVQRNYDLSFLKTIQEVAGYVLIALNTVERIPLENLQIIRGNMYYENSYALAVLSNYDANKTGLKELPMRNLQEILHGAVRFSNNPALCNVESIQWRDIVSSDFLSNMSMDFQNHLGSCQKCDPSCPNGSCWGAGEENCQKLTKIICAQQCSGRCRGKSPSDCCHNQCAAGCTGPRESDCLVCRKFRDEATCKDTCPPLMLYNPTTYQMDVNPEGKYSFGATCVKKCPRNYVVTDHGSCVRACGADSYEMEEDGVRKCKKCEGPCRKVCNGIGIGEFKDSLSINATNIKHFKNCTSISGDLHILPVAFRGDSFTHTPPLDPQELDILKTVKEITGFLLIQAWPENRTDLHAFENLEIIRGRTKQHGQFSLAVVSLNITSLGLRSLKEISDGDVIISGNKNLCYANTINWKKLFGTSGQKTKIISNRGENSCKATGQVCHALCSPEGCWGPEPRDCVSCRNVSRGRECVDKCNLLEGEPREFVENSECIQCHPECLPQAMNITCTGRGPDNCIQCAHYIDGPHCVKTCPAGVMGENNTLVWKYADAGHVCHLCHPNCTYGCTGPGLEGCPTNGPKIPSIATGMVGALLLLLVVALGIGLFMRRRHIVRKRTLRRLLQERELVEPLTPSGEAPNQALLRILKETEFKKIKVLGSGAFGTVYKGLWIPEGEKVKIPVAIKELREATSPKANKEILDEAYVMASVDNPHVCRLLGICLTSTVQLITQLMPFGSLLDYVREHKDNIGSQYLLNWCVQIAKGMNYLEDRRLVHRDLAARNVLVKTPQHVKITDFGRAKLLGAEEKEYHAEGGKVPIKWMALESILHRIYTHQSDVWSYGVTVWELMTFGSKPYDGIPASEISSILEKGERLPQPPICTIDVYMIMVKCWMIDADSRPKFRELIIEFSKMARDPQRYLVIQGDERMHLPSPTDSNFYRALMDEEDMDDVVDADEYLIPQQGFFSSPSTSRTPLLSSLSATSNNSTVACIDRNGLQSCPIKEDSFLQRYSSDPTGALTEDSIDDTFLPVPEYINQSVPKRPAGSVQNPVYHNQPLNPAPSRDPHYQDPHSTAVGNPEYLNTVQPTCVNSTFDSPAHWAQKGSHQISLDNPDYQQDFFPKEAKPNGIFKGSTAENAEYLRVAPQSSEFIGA
- TEST PROTOCOL: HotSpot radiometric kinase assay, EGFR L858R/C797S
- TEST CONDITIONS: radiometric filter-binding, 10 μM ATP
REPORTED ENDPOINT: IC50 (nM)
Give the quantity in nM, number only.

{"INPUT SMILES": "Cn1ncc2c1OCCCOc1ccccc1/C=C/c1n[nH]c3ccc-2cc13", "ASSAYED SYSTEM": "EGFR L858R/C797S mutant (Homo sapiens (Human), UniProt P00533, C797S/L858R)", "MEAS VALUE": 1070}
{"INPUT SMILES": "Cn1ncc2c1OCCCOc1ccccc1/C=C/c1n[nH]c3cnc-2cc13", "ASSAYED SYSTEM": "EGFR L858R/C797S mutant (Homo sapiens (Human), UniProt P00533, C797S/L858R)", "MEAS VALUE": 55}

# ---- query molecule ----
Please respond with reported IC50 (system EGFR L858R/C797S mutant (Homo sapiens (Human), UniProt P00533, C797S/L858R)) for Cn1ncc2c1OCCCOc1ccccc1/C=C/c1n[nH]c3ccc-2nc13 . 595

====

- ASSAYED SYSTEM: EGFR (Δ746-750) (Homo sapiens (Human), UniProt P00533, DEL746-750)
- Sequence (P00533 other isoform, or with tags, fused parts or gaps del 1-668/del 746-750 limits assumed): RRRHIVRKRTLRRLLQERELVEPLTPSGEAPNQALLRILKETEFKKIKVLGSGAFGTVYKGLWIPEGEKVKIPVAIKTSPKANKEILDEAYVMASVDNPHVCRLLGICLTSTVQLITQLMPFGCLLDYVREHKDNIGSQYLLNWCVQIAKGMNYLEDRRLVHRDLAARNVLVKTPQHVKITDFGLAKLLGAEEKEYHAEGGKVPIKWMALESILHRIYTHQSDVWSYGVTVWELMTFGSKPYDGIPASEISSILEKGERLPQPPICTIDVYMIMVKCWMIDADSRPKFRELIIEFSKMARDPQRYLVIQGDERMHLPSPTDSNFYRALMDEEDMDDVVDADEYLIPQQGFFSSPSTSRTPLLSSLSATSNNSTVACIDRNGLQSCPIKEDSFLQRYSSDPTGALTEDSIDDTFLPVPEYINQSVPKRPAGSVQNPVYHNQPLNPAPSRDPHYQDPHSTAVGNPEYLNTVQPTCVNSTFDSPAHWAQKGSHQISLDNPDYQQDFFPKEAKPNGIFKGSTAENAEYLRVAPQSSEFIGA
- TEST PROTOCOL: HotSpot radiometric kinase assay, EGFR Δ746-750
- TEST CONDITIONS: radiometric filter-binding, 10 μM ATP
Lab note: cut-off is 10 nM. Strictly less in IC50 is true. Exactly 10 nM or more is false.

Example entries and their recorded answers appear below.
{"MOLECULE": "CN(C)CCNC(=O)c1ccc2c(c1)OCCCOc1c(cnn1C)-c1cc3c(n[nH]c3cn1)/C=C/2 [Cpd. 74]", "CAT": "true"}
{"MOLECULE": "CN1CC[C@H](NC(=O)c2ccc3c(c2)OCCCOc2c(cnn2C)-c2cc4c(n[nH]c4cn2)/C=C/3)C1 [Cpd. 88]", "CAT": "false"}
{"MOLECULE": "Cn1ncc2c1COCCOc1ccccc1/C=C/c1n[nH]c3cnc-2cc13 [Cpd. 63]", "CAT": "false"}
{"MOLECULE": "Cn1ncc2c1OCCCOc1ccc(F)cc1/C=C/c1n[nH]c3cnc-2cc13 [Cpd. 100]", "CAT": "false"}

Given Cc1nc2cc3c(n[nH]c13)/C=C/c1cc(F)ccc1OCCCOc1c-2cnn1C [Cpd. 98] , is recorded IC50 strictly lower than 10 nM? false

Given CN(C)CCNC(=O)c1ccc2c(c1)OCCOCc1c(cnn1C)-c1cc3c(n[nH]c3cn1)/C=C/2 [Cpd. 81] , is recorded IC50 strictly lower than 10 nM? false

Given CCNC(=O)c1ccc2c(c1)/C=C/c1n[nH]c3cnc(cc13)-c1cnn(C)c1COCCO2 [Cpd. 89] , is recorded IC50 strictly lower than 10 nM? false

Given CN1CCC(NC(=O)c2ccc3c(c2)/C=C/c2n[nH]c4cnc(cc24)-c2cnn(C)c2OCCCO3)CC1 [Cpd. 97] , is recorded IC50 strictly lower than 10 nM? true

Given Cn1ncc2c1OCCCOc1ccccc1/C=C/c1n[nH]c3cnc-2cc13 [Cpd. 1] , is recorded IC50 strictly lower than 10 nM? true

Given CN1CCC(NC(=O)c2ccc3c(c2)/C=C/c2n[nH]c4cnc(cc24)-c2cnn(C)c2COCCO3)CC1 [Cpd. 93] , is recorded IC50 strictly lower than 10 nM? false

Given CN(C)CCCNC(=O)c1ccc2c(c1)/C=C/c1n[nH]c3cnc(cc13)-c1cnn(C)c1COCCO2 [Cpd. 91] , is recorded IC50 strictly lower than 10 nM? false

Given CN1CCC(CNC(=O)c2ccc3c(c2)/C=C/c2n[nH]c4cnc(cc24)-c2cnn(C)c2OCCCO3)CC1 [Cpd. 76] , is recorded IC50 strictly lower than 10 nM? true
